Test: Relative inhibition index (RI) was determined as the % recovery / (rate of inhibition) and is expressed relative to Compound 3
Type: functional
compounds and their reported RI
API note: the answer field is a bare number with no unit suffix.

Worked examples, 4 compounds total:
COCC[C@H]1CC2CN3CCc4c([nH]c5ccccc45)[C@](C(=O)OCCO)(C2)[C@H]13
1.2
COCCOC(=O)[C@@]12CC3C[C@H](CCOC)[C@@H]1N(CCc1c2[nH]c2ccccc12)C3
0.6
COCC[C@H]1CC2CN3CCc4c([nH]c5ccccc45)[C@](C(=O)O)(C2)[C@H]13
2.4
COCC[C@H]1CC2CN3CCc4c([nH]c5ccccc45)[C@](C(=O)OC)(C2)[C@H]13
1

Request: Field request: RI | item: `COCCNC(=O)[C@@]12CC3C[C@H](CCOC)[C@@H]1N(CCc1c2[nH]c2ccccc12)C3`
Result: 2.3

* * *

compounds and their reported inhibition
Target: Mu-type opioid receptor (Cavia porcellus) (UniProt P97266)
Sequence (P97266 whole entry): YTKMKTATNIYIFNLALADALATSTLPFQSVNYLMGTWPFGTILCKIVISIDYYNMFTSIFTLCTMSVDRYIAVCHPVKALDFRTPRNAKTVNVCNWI
Assay: Inhibition of [3H]DAMGO binding to Opioid receptor mu 1 from guinea pig brain membranes
Set-up: concentration or dose not given beside the values
Details: concentration not given here
Write the value in % as a bare number.

COCCC1C2CN3CCc4c([nH]c5ccccc45)[C@](C(=O)OC)(C2)[C@H]13 (stereo partly drawn)
18
COC(=O)[C@@]12CC3C[C@H](CCO)[C@@H]1N(CCc1c2[nH]c2ccccc12)C3
15
COCCOC(=O)[C@@]12CC3C[C@H](CCOC)[C@@H]1N(CCc1c2[nH]c2ccccc12)C3
5
COCC[C@H]1CC2CN3CCc4c([nH]c5ccccc45)[C@](C(=O)OCCNC(C)=O)(C2)[C@H]13
0
COCC[C@H]1CC2CN3CCc4c([nH]c5ccccc45)[C@](C(=O)OCCN(C)C)(C2)[C@H]13
16
COC(=O)[C@@]12CC3C[C@H](CCN(C)C)[C@@H]1N(CCc1c2[nH]c2ccccc12)C3
15

Request: Provide value of inhibition for this record tested with Mu-type opioid receptor (Cavia porcellus) (UniProt P97266): `COCC[C@H]1CC2CN3CCc4c([nH]c5ccccc45)[C@](C(=O)OCCO)(C2)[C@H]13`
Result: 8

Request: Okay, and `COCC[C@H]1CC2CN3CCc4c([nH]c5ccccc45)[C@](C(=O)NCCO)(C2)[C@H]13` ?
Result: 7

Request: Okay, and COCC[C@H]1CC2CN3CCc4c([nH]c5ccccc45)[C@](C(=O)NCCCCCCNC(=O)CCCC[C@@H]4SCC5NC(=O)NC54)(C2)C13 (stereo partly drawn) ?
Result: 19

* * *

Molecular target: Neuronal acetylcholine receptor; alpha3/beta4 (Homo sapiens, UniProt P30926+P32297)
Assay: Rate of inhibition of Ach evoked currents at alpha3-beta4 nicotinic acetylcholine receptor by 20 uM concentration
Format: functional
assay metric: Rate of inhibition

Worked examples, 3 compounds total:
COCC[C@H]1CC2CN3CCc4c([nH]c5ccccc45)[C@](C(=O)NCCN(C)C)(C2)[C@H]13
9.5 s⁻¹
COCC[C@H]1CC2CN3CCc4c([nH]c5ccccc45)[C@](C(=O)O)(C2)[C@H]13
5.1 s⁻¹
COCCNC(=O)[C@@]12CC3C[C@H](CCOC)[C@@H]1N(CCc1c2[nH]c2ccccc12)C3
9.2 s⁻¹

Request: Field request: Rate of inhibition | item: `COCC[C@H]1CC2CN3CCc4c([nH]c5ccccc45)[C@](C(=O)NCCO)(C2)[C@H]13`
Result: 7.9 s⁻¹

Request: Okay, and `COCC[C@H]1CC2CN3CCc4c([nH]c5ccccc45)[C@](C(=O)OCCN(C)C)(C2)[C@H]13` ?
Result: 10.3 s⁻¹

Request: Okay, and `COCC[C@H]1CC2CN3CCc4c([nH]c5ccccc45)[C@](C(=O)OCCNC(C)=O)(C2)[C@H]13` ?
Result: 6.7 s⁻¹

Request: Okay, and `COCCOC(=O)[C@@]12CC3C[C@H](CCOC)[C@@H]1N(CCc1c2[nH]c2ccccc12)C3` ?
Result: 6 s⁻¹

Request: Okay, and COCCC1C2CN3CCc4c([nH]c5ccccc45)[C@](C(=O)OC)(C2)[C@H]13 (stereo partly specified) ?
Result: 4.1 s⁻¹

Request: Okay, and `COCC[C@H]1CC2CN3CCc4c([nH]c5ccccc45)[C@](C(=O)OCCO)(C2)[C@H]13` ?
Result: 7.6 s⁻¹

Request: Okay, and `CNCC[C@H]1CC2CN3CCc4c([nH]c5ccccc45)[C@](C(=O)OC)(C2)[C@H]13` ?
Result: 8.5 s⁻¹

Request: Okay, and `COC(=O)[C@@]12CC3C[C@H](CCN(C)C)[C@@H]1N(CCc1c2[nH]c2ccccc12)C3` ?
Result: 8 s⁻¹

* * *

Target: Neuronal acetylcholine receptor; alpha3/beta4 (Homo sapiens, UniProt P30926+P32297)
Assay: Recovery from Ach evoked currents at alpha3-beta4 nicotinic acetylcholine receptor at 20 uM
Assay type: functional
assay metric: Recovery
For clarity, give the value followed by its unit.

Worked examples, 5 compounds total:
COCC[C@H]1CC2CN3CCc4c([nH]c5ccccc45)[C@](C(=O)O)(C2)[C@H]13
27%
COCC[C@H]1CC2CN3CCc4c([nH]c5ccccc45)[C@](C(=O)OCCO)(C2)[C@H]13
20%
COCC[C@H]1CC2CN3CCc4c([nH]c5ccccc45)[C@](C(=O)OCCNC(C)=O)(C2)[C@H]13
45%
CNCC[C@H]1CC2CN3CCc4c([nH]c5ccccc45)[C@](C(=O)OC)(C2)[C@H]13
21%
COCCC1C2CN3CCc4c([nH]c5ccccc45)[C@](C(=O)OC)(C2)[C@H]13 (some centres undefined)
14%

Request: Field request: Recovery | item: `COCCOC(=O)[C@@]12CC3C[C@H](CCOC)[C@@H]1N(CCc1c2[nH]c2ccccc12)C3`
Result: 8%

Request: Okay, and `COCC[C@H]1CC2CN3CCc4c([nH]c5ccccc45)[C@](C(=O)OCCN(C)C)(C2)[C@H]13` ?
Result: 16%

Request: Okay, and `COCC[C@H]1CC2CN3CCc4c([nH]c5ccccc45)[C@](C(=O)NCCO)(C2)[C@H]13` ?
Result: 80%

Request: Okay, and `COC(=O)[C@@]12CC3C[C@H](CCN(C)C)[C@@H]1N(CCc1c2[nH]c2ccccc12)C3` ?
Result: 16%

* * *

Molecular target: Kappa-type opioid receptor (Cavia porcellus) (UniProt P41144)
Sequence (P41144 whole entry): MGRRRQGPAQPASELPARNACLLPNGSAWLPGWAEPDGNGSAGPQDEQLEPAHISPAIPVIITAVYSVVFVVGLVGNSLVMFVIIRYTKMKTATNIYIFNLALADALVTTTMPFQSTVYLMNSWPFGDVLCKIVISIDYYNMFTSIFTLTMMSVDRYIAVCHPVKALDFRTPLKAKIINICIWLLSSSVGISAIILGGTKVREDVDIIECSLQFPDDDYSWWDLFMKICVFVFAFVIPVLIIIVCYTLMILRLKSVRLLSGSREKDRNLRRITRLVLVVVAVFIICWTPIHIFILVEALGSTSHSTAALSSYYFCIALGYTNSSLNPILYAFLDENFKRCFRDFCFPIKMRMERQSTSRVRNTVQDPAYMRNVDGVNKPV
Test: Inhibition of [3H]U-69593 binding to Opioid receptor kappa 1 from guinea pig brain membranes
Design: concentration or dose not given beside the values
Conditions: concentration not given here
Returns true (1) if the recorded inhibition is greater than or equal to 7%, and false (0) otherwise.

These recorded examples may help you get a feel for the data.
COCC[C@H]1CC2CN3CCc4c([nH]c5ccccc45)[C@](C(=O)OC)(C2)[C@H]13
true (1)
COCC[C@H]1CC2CN3CCc4c([nH]c5ccccc45)[C@](C(=O)OCCNC(C)=O)(C2)[C@H]13
false (0)
COCC[C@H]1CC2CN3CCc4c([nH]c5ccccc45)[C@](C(=O)NCCN(C)C)(C2)[C@H]13
true (1)
COC(=O)[C@@]12CC3C[C@H](CCOCc4ccccc4)[C@@H]1N(CCc1c2[nH]c2ccccc12)C3
false (0)

Request: Is the recorded value of inhibition equal to or greater than 7% for this compound? COCC[C@H]1CC2CN3CCc4c([nH]c5ccccc45)[C@](C(=O)NCCCCCCNC(=O)CCCC[C@@H]4SCC5NC(=O)NC54)(C2)C13 (stereo partly specified)
Result: true (1)

Request: Okay, and `COCCOC(=O)[C@@]12CC3C[C@H](CCOC)[C@@H]1N(CCc1c2[nH]c2ccccc12)C3` ?
Result: true (1)

Request: Okay, and `COCC[C@H]1CC2CN3CCc4c([nH]c5ccccc45)[C@](C(=O)NCCO)(C2)[C@H]13` ?
Result: true (1)

Request: Okay, and `COCC[C@H]1CC2CN3CCc4c([nH]c5ccccc45)[C@](C(=O)OCCO)(C2)[C@H]13` ?
Result: true (1)

Request: Okay, and `COC(=O)[C@@]12CC3C[C@H](CCO)[C@@H]1N(CCc1c2[nH]c2ccccc12)C3` ?
Result: false (0)

* * *

compounds and their reported inhibition
Target: Neuronal acetylcholine receptor; alpha3/beta4 (Homo sapiens, UniProt P30926+P32297)
Test: Inhibition of Ach evoked currents at alpha3-beta4 nicotinic acetylcholine receptor by 20 uM concentration
Type: functional
For clarity, give the value followed by its unit.

Worked examples, 5 compounds total:
COCC[C@H]1CC2CN3CCc4c([nH]c5ccccc45)[C@](C(=O)O)(C2)[C@H]13
59%
CNCC[C@H]1CC2CN3CCc4c([nH]c5ccccc45)[C@](C(=O)OC)(C2)[C@H]13
98%
COCCOC(=O)[C@@]12CC3C[C@H](CCOC)[C@@H]1N(CCc1c2[nH]c2ccccc12)C3
99%
COCC[C@H]1CC2CN3CCc4c([nH]c5ccccc45)[C@](C(=O)OCCN(C)C)(C2)[C@H]13
98%
COC(=O)[C@@]12CC3C[C@H](CCN(C)C)[C@@H]1N(CCc1c2[nH]c2ccccc12)C3
99%

// switching to the query compound
Request: Field request: inhibition | item: `COCC[C@H]1CC2CN3CCc4c([nH]c5ccccc45)[C@](C(=O)OCCNC(C)=O)(C2)[C@H]13`
Result: 95%
